Test system: EW-1 (Ewing's Sarcoma)
Experiment: combination Emax (second highest fraction inhibited in the dose matrix, 72 h); higher = more inhibition; extreme values may be limits of the assay
Label class 1 for high-side combination Emax (at or above 0.4) and class 0 for low-side combination Emax (below it).

Past entries and their recorded results:
compound="COc1nnc2ccc(N3CCC(c4ccc(OCCN5CCN(C)C(=O)[C@H]5C)cc4)CC3)nn12 [AZD5153] + CN(CC[C@H](CSC1=CC=CC=C1)NC2=C(C=C(C=C2)S(=O)(=O)NC(=O)C3=CC=C(C=C3)N4CCC(CC4)[C@H](C5=CC=CC=C5C6=CC=C(C=C6)Cl)O)S(=O)(=O)C(F)(F)F)CCO [AZD4320] (first compound max 1 µM, 7x7, partner max 1 µM)" answer_label="class 1"
compound="CCN(CCO)CCCOc1ccc2c(Nc3cc(CC(=O)Nc4cccc(F)c4)[nH]n3)ncnc2c1 [AZD2811] + C=CCn1c(=O)c2cnc(Nc3ccc(N4CCN(C)CC4)cc3)nc2n1-c1cccc(C(C)(C)O)n1 [AZD1775] (first compound max 1 µM, partner max 1 µM)" answer_label="class 1"
compound="NC1(C(=O)N[C@@H](CCO)c2ccc(Cl)cc2)CCN(c2ncnc3[nH]ccc23)CC1 [Capivasertib] + CC(C)n1c(=O)n(C)c2cnc3cc(F)c(-c4ccc(OCCCN5CCCCC5)nc4)cc3c21 [AZD1390] (first compound max 10 µM, 7x7, partner max 0.3 µM)" answer_label="class 0"
compound="Cc1cc2ncnn2cc1Nc1ncc2c(n1)n(C1CCOCC1)c(=O)n2C [AZD7648] + O=C(c1cc(Cc2n[nH]c(=O)c3ccccc23)ccc1F)N1CCN(C(=O)C2CC2)CC1 [Olaparib] (first compound max 10 µM, 7x7, partner max 10 µM)" answer_label="class 1"
compound="COc1nnc2ccc(N3CCC(c4ccc(OCCN5CCN(C)C(=O)[C@H]5C)cc4)CC3)nn12 [AZD5153] + Cc1c2c(nn1C)CSCc1cc(n(C)n1)CSc1cc(c3ccccc3c1)OCCCc1c(C(=O)O)n(C)c3c-2c(Cl)ccc13 [AZD5991] (first compound max 1 µM, 7x7, partner max 1 µM)" answer_label="class 1"
compound="COc1cc2ncnc(Nc3ccc(F)c(Cl)c3)c2cc1OCCCN1CCOCC1 [Gefitinib] + CC(C)n1c(=O)n(C)c2cnc3cc(F)c(-c4ccc(OCCCN5CCCCC5)nc4)cc3c21 [AZD1390] (first compound max 10 µM, 7x7, partner max 0.3 µM)" answer_label="class 0"
compound="NC1(C(=O)N[C@@H](CCO)c2ccc(Cl)cc2)CCN(c2ncnc3[nH]ccc23)CC1 [Capivasertib] + Cn1cnc2c(F)c(Nc3ccc(Br)cc3Cl)c(C(=O)NOCCO)cc21 [Selumetinib] (first compound max 10 µM, 7x7, partner max 10 µM)" answer_label="class 1"
compound="CN(CCO)CC[C@H](CSc1ccccc1)Nc1ccc(S(=O)(=O)NC(=O)c2ccc(N3CCC([C@@H](O)c4ccccc4-c4ccc(Cl)cc4)CC3)cc2)cc1S(=O)(=O)C(F)(F)F [AZD4320] + CCN(CCO)CCCOc1ccc2c(Nc3cc(CC(=O)Nc4cccc(F)c4)[nH]n3)ncnc2c1 [AZD2811] (first compound max 1 µM, 7x7, partner max 1 µM)" answer_label="class 1"
compound="CC1(C)CCC(CN2CCN(c3ccc(C(=O)NS(=O)(=O)c4ccc(NCC5CCOCC5)c([N+](=O)[O-])c4)c(Oc4cnc5[nH]ccc5c4)c3)CC2)=C(c2ccc(Cl)cc2)C1 [Venetoclax] + C1CN(CCC1(C(=O)N[C@@H](CCO)C2=CC=C(C=C2)Cl)N)C3=NC=NC4=C3C=CN4 [Capivasertib] (first compound max 1 µM, 7x7, partner max 3 µM)" answer_label="class 0"
compound="CN(C)CCCOc1ccc(-c2ccc3ncc4c(c3c2)n(C2CCOCC2)c(=O)n4C)cn1 [AZD0156] + C[C@@H]1COCCN1C2=NC(=NC(=C2)C3(CC3)[S@](=N)(=O)C)C4=C5C=CNC5=NC=C4 [AZD6738] (first compound max 1 µM, 7x7, partner max 10 µM)" answer_label="class 1"

Asked: Can Cn1cnc2c(F)c(Nc3ccc(Br)cc3Cl)c(C(=O)NOCCO)cc21 [Selumetinib] + C=CCn1c(=O)c2cnc(Nc3ccc(N4CCN(C)CC4)cc3)nc2n1-c1cccc(C(C)(C)O)n1 [AZD1775] (first compound max 10 µM, partner max 1 µM) be said to have combination Emax at or above 0.4?
Given back: class 1

Asked: Can Cc1cc2ncnn2cc1Nc1ncc2c(n1)n(C1CCOCC1)c(=O)n2C [AZD7648] + C=CCn1c(=O)c2cnc(Nc3ccc(N4CCN(C)CC4)cc3)nc2n1-c1cccc(C(C)(C)O)n1 [AZD1775] (first compound max 10 µM, partner max 1 µM) be said to have combination Emax at or above 0.4?
Given back: class 1

Asked: Can Cc1c2c(nn1C)CSCc1cc(n(C)n1)CSc1cc(c3ccccc3c1)OCCCc1c(C(=O)O)n(C)c3c-2c(Cl)ccc13 [AZD5991] + CN(C)CCCOc1ccc(-c2ccc3ncc4c(c3c2)n(C2CCOCC2)c(=O)n4C)cn1 [AZD0156] (first compound max 1 µM, 7x7, partner max 1 µM) be said to have combination Emax at or above 0.4?
Given back: class 0
